Each recorded value in this set is attributed to patent US20080194574A1.

ASSAYED_TARGET: viral kinase pUL-97 (Human cytomegalovirus)
Construct: The pUL-97 gene was cloned into a baculovirus vector; GST (glutathione S-transferase) (N); made in house; host or cells: Sf9 insect cells, baculovirus
Sequence (P16788 whole entry): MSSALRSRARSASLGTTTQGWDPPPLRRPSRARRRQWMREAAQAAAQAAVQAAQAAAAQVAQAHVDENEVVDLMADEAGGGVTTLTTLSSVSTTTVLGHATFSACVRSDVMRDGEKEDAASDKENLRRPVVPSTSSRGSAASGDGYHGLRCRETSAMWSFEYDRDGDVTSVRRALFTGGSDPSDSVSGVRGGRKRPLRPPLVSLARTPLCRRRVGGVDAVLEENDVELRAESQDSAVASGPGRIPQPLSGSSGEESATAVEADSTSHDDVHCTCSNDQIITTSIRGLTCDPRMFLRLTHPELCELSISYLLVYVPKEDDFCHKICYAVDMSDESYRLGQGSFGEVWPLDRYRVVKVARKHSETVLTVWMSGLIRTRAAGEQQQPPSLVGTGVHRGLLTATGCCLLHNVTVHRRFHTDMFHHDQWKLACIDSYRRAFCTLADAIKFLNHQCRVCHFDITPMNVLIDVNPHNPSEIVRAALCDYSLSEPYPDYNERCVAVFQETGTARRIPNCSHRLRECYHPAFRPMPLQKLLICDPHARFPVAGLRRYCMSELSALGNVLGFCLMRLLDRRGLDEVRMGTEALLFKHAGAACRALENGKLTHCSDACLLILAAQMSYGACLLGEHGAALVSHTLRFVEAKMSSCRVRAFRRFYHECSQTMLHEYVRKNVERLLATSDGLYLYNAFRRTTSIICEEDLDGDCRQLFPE
ASSAY_TEXT: UL97 kinase assay on Immobilon plate
Type: biochemical
TEST_CONTEXT: inhibition of UL 97 kinase activity; class by IC50 / % inhibition at 10 or 100 μM; read-out: Activity Class [A, B, C]
pIC50: −log10 of the molar value.
pIC50 reference
PROPERTY: pIC50

1) CCNc1cncc(-c2ccc(C(N)=O)cc2)n1 [compound 40, 4-(6-Ethylamino-pyrazin-2-yl)-benzamide] : 5.00 to 6.00
2) Cc1ccccc1-c1cncc(N2CCN(c3ccccc3F)CC2)n1 [compound 124] : 4.00 to 5.00
3) NC(=O)c1ccccc1-c1cncc(N2CCN(c3ccncc3)CC2)n1 [Comp. 70] : 4.00 to 5.00
4) CC(C)(C)c1ccc(-c2cncc(N3CCN(c4ccccc4)CC3)n2)cc1 [compound 95] : 4.00 to 5.00
5) CCOc1ccc(-c2cncc(N3CCN(c4ccc(OC)c(OC)c4)CC3)n2)cc1 [compound 45] : 5.00 to 6.00
6) Fc1ccc(-c2cncc(N3CCN(c4ccccc4)CC3)n2)cc1 [compound 111] : 5.00 to 6.00
7) Fc1ccccc1N1CCN(c2cncc(-c3cc(C(F)(F)F)cc(C(F)(F)F)c3)n2)CC1 [compound 196] : 4.00 to 5.00
8) N#Cc1ccccc1N1CCN(c2cncc(-c3ccc(Cl)cc3)n2)CC1 [compound 42] : 5.00 to 6.00
9) Fc1ccc(-c2cncc(N3CCN(c4ccccc4F)CC3)n2)cc1 [compound 114] : 5.00 to 6.00
